Values compiled from patent US11261175B2.

Property: EC50; scope: individual compounds
tested on: HCV genotype 1b replicon with NS5A L31V mutation; assay: Transiently transfected assay of genotype 1b resistance mutant RNA L31V; assay type: cell-based; conditions: Hepatitis C virus, Huh-7.5.1, 72 h, read-out: HCV Mutation L31V

Some solved entries appear below for comparison.
CCCC1(CCC)c2cc(NC(=O)[C@@H]3CC4(CN3C(=O)[C@H](NC(=O)OC)c3ccccc3)OCCO4)ccc2-c2ccc(-c3cnc([C@@H]4CCCN4C(=O)[C@@H](NC(=O)OC)C(C)C)[nH]3)cc21 : 0.001 to 0.01 nM
CCCCC1(CCCC)c2cc(NC(=O)[C@@H]3CC(F)(F)CN3C(=O)[C@H](NC(=O)OC)c3ccccc3)ccc2-c2ccc(NC(=O)[C@@H]3C[C@@H]4CCC[C@@H]4N3C(=O)[C@H](NC(=O)OC)c3ccccc3)cc21 : 0.001 to 0.01 nM
CCCCCC1(CCCCC)c2cc(NC(=O)[C@@H]3CC(=O)CN3C(=O)[C@H](NC(=O)OC)c3ccccc3)ccc2-c2ccc(NC(=O)[C@@H]3CC4(CN3C(=O)[C@H](NC(=O)OC)c3ccccc3)OCCO4)cc21 : 0.01 to 0.1 nM

Next:
Provide the documented EC50 with HCV genotype 1b replicon with NS5A L31V mutation as the system for "CCCCC1(CCCC)c2cc(NC(=O)[C@@H]3CC4(CC4)CN3C(=O)[C@H](NC(=O)OC)c3ccccc3)ccc2-c2ccc(NC(=O)[C@@H]3C[C@H]4CCC[C@H]4N3C(=O)[C@H](NC(=O)OC)c3ccccc3)cc21"
0.001 to 0.01 nM

----------
System: HCV genotype 1b replicon with NS5A Y93H mutation
Test: Transiently transfected assay of genotype 1b resistance mutant RNA Y93H
Assay type: cell-based
Conditions: Hepatitis C virus, Huh-7.5.1, 72 h, read-out: HCV Mutation Y93H
Description: <Experimental Example 3> Transiently Transfected Assay of Genotype 1b Resistance Mutant RNAs Replicon genomes substituted with Y93H, L31V and L31V+Y93H (double mutant), the resistance mutants to Daclatasvir with mutations at the NS5A protein domain 1. These HCV resistance mutant genomes were linearized with scal restriction enzyme, and then the mutated HCV RNA was synthesized through in vitro transcription. […]
pEC50: −log10 of the molar value.
Reported endpoint: pEC50

CCC1(CC)c2cc(NC(=O)[C@@H]3CCCN3C(=O)[C@H](NC(=O)OC)c3ccccc3)ccc2-c2ccc(NC(=O)[C@@H]3CCCN3C(=O)[C@H](NC(=O)OC)c3ccccc3)cc21 : 7.00 to 9.00

Which pEC50 reading was recorded for the compound "CCCCC1(CCCC)c2cc(NC(=O)[C@@H]3CCCN3C(=O)[C@H](NC(=O)OC)c3ccccc3)ccc2-c2ccc(NC(=O)[C@@H]3CC4(CN3C(=O)[C@H](NC(=O)OC)c3ccccc3)OCCO4)cc21" ?
10.00 to 11.00

// same read-out, input: "CCCCC1(CCCC)c2cc(NC(=O)[C@@H]3CCCN3C(=O)[C@H](NC(=O)OC)c3ccccc3)ccc2-c2ccc(-c3cnc([C@@H]4C[C@H](COC)CN4C(=O)[C@@H](NC(=O)OC)C(C)C)[nH]3)cc21"
10.00 to 11.00

// same read-out, input: "CCCCCC1(CCCCC)c2cc(NC(=O)[C@@H]3CCCN3C(=O)[C@H](NC(=O)OC)c3ccccc3)ccc2-c2ccc(NC(=O)[C@@H]3CC(=O)CN3C(=O)[C@H](NC(=O)OC)c3ccccc3)cc21"
9.00 to 10.00

// same read-out, input: "COC(=O)N[C@@H](C(=O)N1CCC[C@H]1C(=O)Nc1ccc2c(c1)C(CCCC(F)(F)F)(CCCC(F)(F)F)c1cc(NC(=O)[C@@H]3CCCN3C(=O)[C@H](NC(=O)OC)c3ccccc3)ccc1-2)c1ccccc1"
< 7.00

// same read-out, input: "CCCCC1(CCCC)c2cc(NC(=O)[C@@H]3C[C@H]4CCC[C@H]4N3C(=O)[C@H](NC(=O)OC)c3ccccc3)ccc2-c2ccc(-c3cnc([C@@H]4CCCN4C(=O)[C@@H](NC(=O)OC)C(C)C)[nH]3)cc21"
9.00 to 10.00

----------
Property: EC50; scope: individual compounds
test system: HCV genotype 1b replicon with NS5A L31V mutation; assay: Transiently transfected assay of genotype 1b resistance mutant RNA L31V; type: cell-based; conditions: Hepatitis C virus, Huh-7.5.1, 72 h, read-out: HCV Mutation L31V

COC(=O)N[C@H](C(=O)N1CCC[C@@H]1C(=O)Nc1ccc2c(c1)C(CCCCC(F)(F)F)(CCCCC(F)(F)F)c1cc(NC(=O)[C@@H]3CCCN3C(=O)[C@H](NC(=O)OC)c3ccccc3)ccc1-2)c1ccccc1 : 0.1 to 1 nM
CCCCC1(CCCC)c2cc(NC(=O)[C@@H]3CC4(CC4)CN3C(=O)[C@H](NC(=O)OC)c3ccccc3)ccc2-c2ccc(-c3cnc([C@@H]4CCCN4C(=O)[C@@H](NC(=O)OC)C(C)C)[nH]3)cc21 : 0.01 to 0.1 nM
CCCCCC1(CCCCC)c2cc(NC(=O)[C@@H]3CC4(CN3C(=O)[C@H](NC(=O)OC)c3ccccc3)OCCO4)ccc2-c2ccc(NC(=O)[C@@H]3CC4(CN3C(=O)[C@H](NC(=O)OC)c3ccccc3)OCCO4)cc21 : 0.001 to 0.01 nM
CCC1(CC)c2cc(NC(=O)[C@@H]3CCCN3C(=O)[C@H](NC(=O)OC)c3ccccc3)ccc2-c2ccc(-c3cnc([C@@H]4CCCN4C(=O)[C@@H](NC(=O)OC)C(C)C)[nH]3)cc21 : 0.01 to 0.1 nM

Next:
Which EC50 reading was recorded for the compound "CCCCC1(CCCC)c2cc(NC(=O)[C@@H]3C[C@H](COC)CN3C(=O)[C@H](NC(=O)OC)c3ccccc3)ccc2-c2ccc(-c3cnc([C@@H]4CCCN4C(=O)[C@@H](NC(=O)OC)C(C)C)[nH]3)cc21" ?
0.001 to 0.01 nM

----------
Property: EC50; scope: individual compounds
tested on: HCV genotype 1b replicon with NS5A Y93H mutation; assay: Transiently transfected assay of genotype 1b resistance mutant RNA Y93H; assay type: cell-based; settings: Hepatitis C virus, Huh-7.5.1, 72 h, read-out: HCV Mutation Y93H

CCCCC1(CCCC)c2cc(NC(=O)[C@@H]3C[C@@H](O)CN3C(=O)[C@H](NC(=O)OC)c3ccccc3)ccc2-c2ccc(-c3cnc([C@@H]4CCCN4C(=O)[C@@H](NC(=O)OC)C(C)C)[nH]3)cc21 [Example 31] : 0.01 to 0.1 nM

Next:
Which EC50 reading was recorded for the compound CCCCC1(CCCC)c2cc(NC(=O)[C@@H]3CC4(CN3C(=O)[C@H](NC(=O)OC)c3ccccc3)OCCO4)ccc2-c2ccc(-c3cnc([C@@H]4CCCN4C(=O)[C@@H](NC(=O)OC)C(C)C)[nH]3)cc21 [Example 14] ?
0.001 to 0.01 nM

----------
test system: HCV genotype 1b replicon with NS5A L31V mutation; test: Transiently transfected assay of genotype 1b resistance mutant RNA L31V; format: cell-based; conditions: Hepatitis C virus, Huh-7.5.1, 72 h, read-out: HCV Mutation L31V
Reported endpoint: EC50

Some solved entries appear below for comparison.
CCCCC1(CCCC)c2cc(NC(=O)[C@@H]3CCCN3C(=O)[C@H](NC(=O)OC)c3ccccc3)ccc2-c2ccc(NC(=O)[C@@H]3CC4(CN3C(=O)[C@H](NC(=O)OC)c3ccccc3)OCCO4)cc21 : 0.001 to 0.01 nM
CCCCC1(CCCC)c2cc(NC(=O)[C@@H]3C[C@@H](O)CN3C(=O)[C@H](NC(=O)OC)c3ccccc3)ccc2-c2ccc(NC(=O)[C@@H]3C[C@H](COC)CN3C(=O)[C@H](NC(=O)OC)c3ccccc3)cc21 : 0.001 to 0.01 nM
CCCCCC1(CCCCC)c2cc(NC(=O)[C@@H]3CCCN3C(=O)[C@H](NC(=O)OC)c3ccccc3)ccc2-c2ccc(NC(=O)[C@@H]3CC4(CN3C(=O)[C@H](NC(=O)OC)c3ccccc3)OCCO4)cc21 : 0.001 to 0.01 nM
CCCCC1(CCCC)c2cc(NC(=O)[C@@H]3CC(=O)CN3C(=O)[C@H](NC(=O)OC)c3ccccc3)ccc2-c2ccc(NC(=O)[C@@H]3CC(=O)CN3C(=O)[C@H](NC(=O)OC)c3ccccc3)cc21 : 0.001 to 0.01 nM
CCCCCC1(CCCCC)c2cc(NC(=O)[C@@H]3CCCN3C(=O)[C@H](NC(=O)OC)c3ccccc3)ccc2-c2ccc(NC(=O)[C@@H]3CC(=O)CN3C(=O)[C@H](NC(=O)OC)c3ccccc3)cc21 : 0.01 to 0.1 nM

Which EC50 reading was recorded for the molecule "CCCCC1(CCCC)c2cc(NC(=O)[C@@H]3C[C@@H](OCCOC)CN3C(=O)[C@H](NC(=O)OC)c3ccccc3)ccc2-c2ccc(NC(=O)[C@@H]3C[C@@H](OCCOC)CN3C(=O)[C@H](NC(=O)OC)c3ccccc3)cc21" ?
0.01 to 0.1 nM

// same read-out, input: "CCCCC1(CCCC)c2cc(NC(=O)[C@@H]3CC(F)(F)CN3C(=O)[C@H](NC(=O)OC)c3ccccc3)ccc2-c2ccc(NC(=O)[C@@H]3CC4(CC4)CN3C(=O)[C@H](NC(=O)OC)c3ccccc3)cc21"
0.001 to 0.01 nM

// same read-out, input: "COC(=O)N[C@@H](C(=O)N1CCC[C@H]1C(=O)Nc1ccc2c(c1)C(CCCC(F)(F)F)(CCCC(F)(F)F)c1cc(NC(=O)[C@@H]3CCCN3C(=O)[C@H](NC(=O)OC)c3ccccc3)ccc1-2)c1ccccc1"
0.1 to 1 nM

// same read-out, input: "CCCCC1(CCCC)c2cc(NC(=O)[C@@H]3CCCN3C(=O)[C@H](NC(=O)OC)c3ccccc3)ccc2-c2ccc(NC(=O)[C@@H]3C[C@H](COC)CN3C(=O)[C@H](NC(=O)OC)c3ccccc3)cc21"
0.001 to 0.01 nM

// same read-out, input: "CCCCC1(CCCC)c2cc(NC(=O)[C@@H]3C[C@@H](OC(=O)CN4CCOCC4)CN3C(=O)[C@H](NC(=O)OC)c3ccccc3)ccc2-c2ccc(NC(=O)[C@@H]3C[C@@H](OC(=O)CN4CCOCC4)CN3C(=O)[C@H](NC(=O)OC)c3ccccc3)cc21"
0.01 to 0.1 nM
